- SUBJECT OF TEST: Neurotensin receptor type 1 (Homo sapiens)
- EXPERIMENT: NTR1 agonists in analog series, SAR follow-up, imaging, image-based, set 3 (AID 602356)
- CONDITIONS USED: NTR1 image-based agonist assay, cellular imaging
Activity calls are given as the source filed them. No rule for the calls is given here.
TEST READOUT: EC50

COc1cccc(OC)c1-c1cc(C(=O)NC2(C(=O)O)C3CC4CC(C3)CC2C4)nn1-c1ccnc2cc(Cl)ccc12 (stereo not given): inactive
Cc1ccc(-c2nnc3c4cc5c(cc4n(Cc4ccc(F)cc4)cc2-3)OCO5)cc1: 9.43 µM
Cc1ccc(Cn2cc3c(-c4ccc(F)cc4)nnc-3c3ccccc32)cc1: > 80 µM (inactive)
c1ccc(Cn2cc3c(-c4ccccc4)nnc-3c3ccccc32)cc1: inactive
COc1cc2c3nnc(-c4ccc(F)cc4)c-3cn(Cc3ccccc3C)c2cc1OC: 3.95 µM

Hi team, please reply with EC50 for each item in this list.
1. COc1ccc2c3nnc(-c4ccc(C)cc4)c-3cn(Cc3ccc(C)cc3)c2c1
2. COc1ccc2nc(C3CCC3)nc(N3CCN(c4ccccc4OC)CC3)c2c1
3. COc1ccc(-c2nnc3c4ccccc4n(Cc4ccccc4)cc2-3)cc1

Data returned:
1: 11.2 µM; 2: 10 µM; 3: inactive

Hi team, please reply with EC50 for each item in this list.
1. COc1cc2c3nnc(-c4ccc(F)cc4)c-3cn(Cc3ccc(C)cc3C)c2cc1OC
2. COc1cc2nc(C3CCC3)nc(N3CCN(c4ccccc4Cl)CC3)c2cc1OC

Data returned:
1: 5.82 µM; 2: 12.2 µM
